Molecular target: NT-proBNP (N-terminal pro-brain natriuretic peptide) (UniProt P16860 P16860:27-102)
Sequence (P16860 27-102, one chain of several): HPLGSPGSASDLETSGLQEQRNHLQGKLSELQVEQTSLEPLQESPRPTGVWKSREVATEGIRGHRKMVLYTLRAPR
Assay: SPR
Measurement Label: pKd
In simple prose, pKd is minus the logarithm base ten of a concentration in moles per litre.

Task item: # lookup: pKd of N20a (ssDNA) DNA: GGCAGGAAGACAAACAGGTCGTAGTGGAAACTGTCCACCGTAGACCGGTTATCTAGTGGTCTGTGGTGCTGT
Reply: 8.54
